- Tested on: PMA-stimulated neutrophils
- measurement protocol: Neutrophil Superoxide Anion (O2^-) Release Assay
- Assay type: cell-based, human
- conditions: Homo sapiens, Neutrophil; PMA-stimulated; value in parentheses: salt; read-out: Neutrophil Superoxide Release IC50 (salt)
result type: IC50 (nM)

> print(dat)
                    compound.smiles                   tested.on  assay.result
1  CCCCCCCCCCCCCCCC(=O)N(C)CCCN(C)C  PMA-stimulated neutrophils          2390
2     CCCCCCCCCCCCCCCC(=O)NCCCN(C)C  PMA-stimulated neutrophils          2800

---

- tested on: protein kinase (PKA), catalytic subunit (Homo sapiens, UniProt P17612)
- measurement protocol: cAMP-Dependent Protein Kinase (PKA) Assay
- conditions: free base
pIC50: −log10 of the molar value.
result type: pIC50

Example results:
> print(dat)
                            compound.smiles  assay.result
1          CCCCCCCCCCCCCCCC(=O)N(C)CCCN(C)C          4.05
2  CCCCCCCCCCCCCCCC(=O)N(C)CCC[N+]1(C)CCOCC1          3.88
3         CCCCCCCCCCCCCCCC(=O)N(CC)CCCN(C)C          3.92
4      CCCCCCCCCCCCCCCC(=O)N(CCCN(C)C)C(C)C          3.76

(1) CCCCCCCCCCCCCCCC(=O)NCCCN(C)C
(2) CCCCCCCCCCCCCCCCN(CCCN(C)C)C(C)=O
Please let me know which one, 1 or 2 , has a lower measured pIC50 value. Give the chosen item's label as your response.
1

---

- tested on: protein kinase (PKA), catalytic subunit (Homo sapiens)
- measurement protocol: cAMP-Dependent Protein Kinase (PKA) Assay
- conditions: free base
result type: IC50

Example results:
> print(dat)
                                   compound  result.type  assay.result
1  CCCCCCCCCCCCCCCC(=O)N(CCC)CCCN(C)C [Compound 8]         IC50      > 218 µM
2  CCCCCCCCCCCCCCCC(=O)NCCCN1CCCCC1C (centres unmarked) [Compound 11]         IC50      > 217 µM
3  CCCCCCCCCCCCCCCC(=O)NCCCN(CC)CC [Compound 10]         IC50      > 218 µM
4  CCCCCCCCCCCCCCCC(=O)N(C)CCN(C)C [Compound 25]         IC50      > 218 µM

Now examine the next entry.
Value of IC50 reported for the compound CCCCCCCCCCCCCCCC(=O)N(CCC[N+]1(C)CCOCC1)Cc1ccccc1 [Compound 22] is < 44 µM
